Just for reference, patent US20230174507A1 is where these values come from.

molecular target: ACSS2 in MDA-MB-468 cells (Homo sapiens); construct: endogenous in cells; test: Cellular fatty-acid IC50: 13C-acetate incorporation into fatty acids (palmitate), LC-MS; settings: hypoxic conditions (1% O2), 75% charcoal stripped serum, 5 hours, 13C-acetate into palmitate, read-out: Cellular Fatty-acid IC50 High Serum MDA468
Sequence (Q9NR19 whole entry): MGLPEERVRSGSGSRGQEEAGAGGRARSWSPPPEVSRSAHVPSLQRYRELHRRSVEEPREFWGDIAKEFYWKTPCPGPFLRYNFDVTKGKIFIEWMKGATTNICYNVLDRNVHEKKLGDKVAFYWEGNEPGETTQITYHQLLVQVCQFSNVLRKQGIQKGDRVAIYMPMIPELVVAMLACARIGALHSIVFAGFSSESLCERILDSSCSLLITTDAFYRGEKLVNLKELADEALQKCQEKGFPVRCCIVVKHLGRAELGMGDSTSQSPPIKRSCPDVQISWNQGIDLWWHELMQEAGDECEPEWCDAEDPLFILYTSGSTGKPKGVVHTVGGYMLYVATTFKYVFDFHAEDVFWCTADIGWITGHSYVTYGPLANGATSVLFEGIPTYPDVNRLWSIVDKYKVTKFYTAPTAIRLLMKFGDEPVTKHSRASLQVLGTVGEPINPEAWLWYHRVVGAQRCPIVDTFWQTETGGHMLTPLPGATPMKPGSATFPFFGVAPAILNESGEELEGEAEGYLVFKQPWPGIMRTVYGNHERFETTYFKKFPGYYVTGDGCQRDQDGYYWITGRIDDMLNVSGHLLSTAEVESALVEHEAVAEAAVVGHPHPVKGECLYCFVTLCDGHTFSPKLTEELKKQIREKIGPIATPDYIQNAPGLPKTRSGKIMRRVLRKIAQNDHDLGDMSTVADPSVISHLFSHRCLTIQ
pIC50: −log10 of the molar value.
Listed here are molecules together with their documented pIC50.

{"chemical_string": "COc1ccc(-c2[nH]c(C)c(C(=O)Nc3cccc(S(=O)(=O)N(C)C)c3)[n+]2[O-])cc1-c1c(C)cccc1C", "target_under_test": "ACSS2 in MDA-MB-468 cells (Homo sapiens)", "outcome_measure": "pIC50", "measured_result": "< 7.30"}

Tell me the measured pIC50 of COc1ccc(-c2[nH]c(C)c(C(=O)Nc3cccc(C(N)=O)c3)[n+]2[O-])cc1-c1c(C)cccc1C , please.
> 7.70

Recorded pIC50 for COc1cc(-c2c(C)cccc2C)cc(-c2[nH]c(C)c(C(=O)Nc3cccc(C(F)(F)C4CC4)c3)[n+]2[O-])c1 , please?
7.30 to 7.70

Field request: pIC50 | item: CCC(F)(F)c1cccc(NC(=O)c2c(C)[nH]c(-c3cc(-c4c(C)cccc4C)c(OC)cc3F)[n+]2[O-])c1
> 7.70

GET /values?readout=pIC50&item= CNC(=O)c1cccc(NC(=O)c2c(C)[nH]c(-c3ccc(OC)c(-c4c(C)cccc4C)n3)[n+]2[O-])c1
> 7.70

Give the measured pIC50 of CCC(F)(F)c1cccc(NC(=O)c2c(C)[nH]c(-c3cc(CCN4CCOCC4)c(OC)c(-c4c(C)cccc4C)c3)[n+]2[O-])c1 .
7.30 to 7.70

What does the record list as pIC50 for CNC(=O)c1cccc(NC(=O)c2c(C)[nH]c(-c3cc(N)cc(-c4c(C)cccc4C)c3)[n+]2[O-])c1 ?
> 7.70

What value of measured pIC50 is listed for CNC(=O)c1cccc(NC(=O)c2c(C)[nH]c(-c3ccc(F)c(-c4c(C)cccc4C)c3)[n+]2[O-])c1 ?
> 7.70

Any idea what pIC50 was measured for CNS(=O)(=O)c1cccc(NC(=O)c2c(C)[nH]c(-c3ccc(OC)c(-c4c(C)cccc4C)c3)[n+]2[O-])c1 ?
7.30 to 7.70
